Tested on: SF-539 CNS
Experiment: NCI-60 one-dose screen, 48 h
Conditions: 10 µM unless noted
About 83,000 compounds went through this panel and 20% of them were active in at least one assay; those are over-represented in the sample as a whole. Active and inactive are the calls of the source. The calls were made as follows: active = growth percent below 10; inactive = the rest.
Labels: active, inactive

molecule	label_class
CC(C)OC(=O)Nc1cc(F)c(F)cc1F	inactive
COc1ccc(-c2ccc(NNC(=O)c3ccc(F)cc3)nn2)cc1OC	inactive
CCOC(=O)COc1ccc2c(c1)O/C(=C\c1ccc(O)cc1)C2=O	inactive
CC(C)CCSc1nc(N)nc2nc[nH]c12	inactive
O=C(O)c1cn(C2CC2)c2cc(N3CCN(Cc4c(O)ccc5ccccc45)CC3)c(F)cc2c1=O	active
O=C(COc1cccc(/C=C2\Oc3ccccc3C2=O)c1)c1ccc([N+](=O)[O-])cc1	inactive
CN(C)CCCNc1nc(-c2cccc(C(Cl)(Cl)Cl)c2)nc(C(Cl)(Cl)Cl)n1	inactive
N#C/C(C(=O)c1ccccc1)=C1/C(=O)Nc2ccc(Br)cc21	inactive
C[C@@H]1C[C@H]2C(=O)O[C@@H](C)[C@H](NC(=O)[C@H](Cc3cc(F)cc(F)c3)NC(=O)Nc3ccc(Cl)cc3F)C(=O)N3C[C@H](O)C[C@H]3C(=O)N3CCN(C)C[C@H]3C(=O)N[C@@H](C)C(=O)N2C1	inactive
O=c1[nH]c2cc(Cl)c(Cl)cc2n2cc3ncccc3c12	inactive
Fc1ccc(NC(=S)c2ccccc2)cc1	inactive
Oc1c(CNCCNCc2cc(Cl)cc(Cc3ccccc3)c2O)cc(Cl)cc1Cc1ccccc1	active
CO[C@H]1CC[C@@]2(C)C(=CC[C@H]3[C@@H]4C[C@H](O)C[C@@]4(C)CC[C@@H]32)C1	inactive
Fc1cc2[nH]ncc2c2c3c(c(-c4cn[nH]c4)nc12)CCCC3	active
C[C@H]1[C@H](C)CC[C@]2(C(=O)O)CC[C@]3(C)C(=CC[C@@H]4[C@@]5(C)C/C(=C/c6ccco6)C(=O)C(C)(C)[C@@H]5CC[C@]43C)[C@H]12	active
O=C1COCCN1c1ccc(NCc2cn(Cc3ccc(F)cc3)c3ccccc23)cc1	inactive
COc1ncnc2c(-c3ccccc3)cn(COCc3ccccc3)c12	inactive
O=C(Nc1cccc2ccccc12)c1cc2ccccc2cc1O	inactive
Ic1ccc2[nH]cc(SSc3c[nH]c4ccc(I)cc34)c2c1	inactive
COCc1nc2ccccc2[nH]1	inactive
CN(C)c1cc(NN=C(c2ccc(O)cc2)c2ccc(O)cc2)c([N+](=O)[O-])cc1[N+](=O)[O-]	inactive
CN(C)Cc1ccc[nH]1	inactive
CCN(CC)c1ccc(/C=C/c2ccc3cc(C)ccc3[n+]2CC)cc1	inactive
CC(C)=CCC[C@](C)(O)[C@H]1CC[C@]2(C)[C@@H]1CC[C@@H]1[C@@]3(C)CC[C@H](OC(=O)CCC(=O)O)C(C)(C)[C@@H]3CC[C@]12C	inactive
Cc1cccc([N+](=O)[O-])c1I	inactive
Cc1cccc(C[C@H](NC(=O)Nc2ccc(Cl)cc2F)C(=O)N[C@@H]2C(=O)N3C[C@H](OC(=O)CCN(C)C)C[C@H]3C(=O)N3CCCC[C@H]3C(=O)N[C@@H](C)C(=O)N3C[C@H](C)C[C@H]3C(=O)O[C@H]2C)c1	inactive
C#CCC(C(=O)OCC)C(=O)OCC	inactive
Cc1ccc(N)c(O)c1	inactive
Fc1cc2[nH]ncc2c2c3c(c(-c4cn[nH]c4C(F)(F)F)nc12)C1CCC3C1 (centres undefined)	active
Cn1cc(-c2nnc(-c3ccccc3)s2)c2cc(Br)cnc21	inactive
O=C(Oc1ccc(Cl)cc1[N+](=O)[O-])Oc1ccc(Cl)cc1[N+](=O)[O-]	inactive
O=C(Nc1ccc(Nc2ccncc2)cc1)c1ccc([N+](=O)[O-])cc1	inactive
COc1cc(NN=C(c2ccc(O)cc2)c2ccc(O)cc2)c([N+](=O)[O-])cc1[N+](=O)[O-]	active
CCN(CCNc1ccc(C)c2sc3cc(Cl)ccc3c(=O)c12)CC(C)O (centres undefined)	inactive
CCN(CCO)CCC(=O)c1ccc([N+](=O)[O-])cc1	inactive
COc1ccc(C(=O)CSc2nccc(Nc3ccc(C(=O)O)cc3)n2)cc1	inactive
O=C(Nc1cccc(F)c1)c1cc(=O)[nH]c2cc(Br)ccc12	inactive
C[n+]1c(-c2ccccc2)c2cc(N)ccc2c2ccccc21	inactive
Cc1cccc(C[C@H](NC(=O)Nc2ccc(Cl)cc2F)C(=O)N[C@@H]2C(=O)N3C[C@H](O)C[C@H]3C(=O)N3CCN(C)C[C@H]3C(=O)N[C@@H](C)C(=O)N3C[C@H](C)C[C@H]3C(=O)O[C@H]2C)c1	inactive

The reported numbers originate from PubChem BioAssay (NCI).
